Molecular target: human serotonin transporter (hSERT) (Homo sapiens)
Sequence (P31645 whole entry): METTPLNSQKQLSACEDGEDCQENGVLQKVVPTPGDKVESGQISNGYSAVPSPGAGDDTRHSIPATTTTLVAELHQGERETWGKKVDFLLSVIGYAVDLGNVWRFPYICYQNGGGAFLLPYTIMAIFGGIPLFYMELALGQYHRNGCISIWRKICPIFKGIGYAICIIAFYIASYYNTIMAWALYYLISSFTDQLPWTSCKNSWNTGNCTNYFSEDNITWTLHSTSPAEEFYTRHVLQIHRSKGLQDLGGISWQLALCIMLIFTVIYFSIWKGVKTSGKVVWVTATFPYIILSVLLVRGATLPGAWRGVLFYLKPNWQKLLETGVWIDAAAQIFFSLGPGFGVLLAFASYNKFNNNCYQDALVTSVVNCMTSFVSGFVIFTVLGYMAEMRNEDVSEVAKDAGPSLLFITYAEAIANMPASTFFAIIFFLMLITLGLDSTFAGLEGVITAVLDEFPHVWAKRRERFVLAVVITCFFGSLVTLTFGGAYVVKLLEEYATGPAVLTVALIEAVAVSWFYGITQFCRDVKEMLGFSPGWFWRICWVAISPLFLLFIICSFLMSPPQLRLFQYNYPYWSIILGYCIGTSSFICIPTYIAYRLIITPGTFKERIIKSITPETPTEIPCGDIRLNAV
Test: biochemical
Settings: Table 5; bound given in μM; read-out: SERT binding affinity Ki
Measured endpoint: Ki

Exam item: Ki for Fc1ccc(C(OCCCCN2CCN(c3ccccn3)CC2)c2ccc(F)cc2)cc1 ?
Marked response: > 10 µM

====

Molecular target: human dopamine transporter (hDAT) (Homo sapiens)
Experiment: cell-based
Conditions: Table 1-1; read-out: Reuptake Inhibition [3H]DA IC50
Measured endpoint: pIC50
// returns pIC50 (minus log10 of molar concentration), number only

Exam item: # get_value(readout= pIC50, system= human dopamine transporter (hDAT) (Homo sapiens)) for O=C(NS(=O)(=O)c1ccc(F)cc1)N1CCN(CCCCOC(c2ccc(F)cc2)c2ccc(F)cc2)CC1
Marked response: 6.69

====

Target: human dopamine transporter (hDAT) (Homo sapiens)
Test: cell-based
Conditions: Table 4-1
Measured endpoint: Discrimination Ratios [3H]DA reuptake/DAT binding
In your answer, state the number alone without any accompanying words.

Below, 2 compounds whose answers are already recorded.
[
  {
    "Given smiles": "O=C(NCC1(c2ccccc2)CCN(CCCCOC(c2ccc(F)cc2)c2ccc(F)cc2)CC1)Nc1ccc(F)cc1",
    "Study target": "human dopamine transporter (hDAT) (Homo sapiens)",
    "Reported measurement": 120.5
  },
  {
    "Given smiles": "NCC1(c2ccccc2)CCN(CCCCOC(c2ccc(F)cc2)c2ccc(F)cc2)CC1",
    "Study target": "human dopamine transporter (hDAT) (Homo sapiens)",
    "Reported measurement": 1.1
  }
]

Exam item: Discrimination Ratios [3H]DA reuptake/DAT binding for O=C(CCN1C(=O)C=CC1=O)NCC1(c2ccccc2)CCN(CCCCOC(c2ccc(F)cc2)c2ccc(F)cc2)CC1 ?
Marked response: 1.2

Exam item: Please do the same for O=C(CCl)NCC1(c2ccccc2)CCN(CCCCOC(c2ccc(F)cc2)c2ccc(F)cc2)CC1 as well.
Marked response: 1.5

Exam item: Please do the same for CC(=O)NCC1(c2ccccc2)CCN(CCCCOC(c2ccc(F)cc2)c2ccc(F)cc2)CC1 as well.
Marked response: 0.8

====

Target: 5-HT2A receptor (Rattus norvegicus)
Construct: expressed in transfected cells; host or cells: NIH-3T3-GF6 cells
Sequence (P14842 whole entry): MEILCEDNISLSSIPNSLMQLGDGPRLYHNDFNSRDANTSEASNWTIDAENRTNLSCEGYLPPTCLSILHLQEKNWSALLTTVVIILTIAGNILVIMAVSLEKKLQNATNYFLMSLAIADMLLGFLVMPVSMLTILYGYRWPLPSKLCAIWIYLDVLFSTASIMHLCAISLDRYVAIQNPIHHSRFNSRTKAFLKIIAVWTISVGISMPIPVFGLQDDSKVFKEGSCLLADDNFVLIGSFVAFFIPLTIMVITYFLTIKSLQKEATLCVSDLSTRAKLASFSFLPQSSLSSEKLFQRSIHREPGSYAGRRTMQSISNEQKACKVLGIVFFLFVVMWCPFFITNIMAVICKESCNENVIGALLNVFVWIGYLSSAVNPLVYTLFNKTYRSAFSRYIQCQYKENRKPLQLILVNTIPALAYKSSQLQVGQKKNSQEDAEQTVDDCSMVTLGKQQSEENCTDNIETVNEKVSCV
Assay: 5-HT2A receptor binding, NIH-3T3-GF6 cells, [3H]ketanserin
Ki values by entry
# output: bare number, implied unit nM

Below, 2 compounds whose answers are already recorded.
[
  {
    "Given smiles": "Fc1ccc(C(OCCCCN2CCN(c3ccc(Cl)cc3)CC2)c2ccc(F)cc2)cc1",
    "Value units": "nM",
    "Reported measurement": 1150
  },
  {
    "Given smiles": "COc1ccccc1N1CCN(CCCCOC(c2ccc(F)cc2)c2ccc(F)cc2)CC1",
    "Value units": "nM",
    "Reported measurement": 698
  }
]

// below: Ki requested for another compound
Exam item: # get_value(readout= Ki, system= 5-HT2A receptor (Rattus norvegicus)) for Fc1ccc(C(OCCCCN2CCN(c3ccccn3)CC2)c2ccc(F)cc2)cc1
Marked response: 498

====

log10 of Ki values by entry
Biological target: 5-HT1A receptor (Homo sapiens, UniProt P08908)
Sequence (P08908 1-422): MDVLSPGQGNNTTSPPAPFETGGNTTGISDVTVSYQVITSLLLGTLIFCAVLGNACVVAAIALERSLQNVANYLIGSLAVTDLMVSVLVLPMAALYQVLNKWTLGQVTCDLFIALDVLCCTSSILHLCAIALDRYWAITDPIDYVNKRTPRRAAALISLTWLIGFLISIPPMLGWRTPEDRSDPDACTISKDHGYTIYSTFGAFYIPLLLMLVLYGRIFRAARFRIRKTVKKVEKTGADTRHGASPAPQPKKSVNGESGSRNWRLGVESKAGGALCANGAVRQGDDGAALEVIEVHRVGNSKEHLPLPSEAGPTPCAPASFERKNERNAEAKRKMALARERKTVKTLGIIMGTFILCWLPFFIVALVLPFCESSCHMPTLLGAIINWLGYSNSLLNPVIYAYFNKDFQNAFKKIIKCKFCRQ
Log scale reminder: Ki in nM, then log10 taken.

Below, 4 compounds whose answers are already recorded.
[
  {
    "Compound": "Fc1ccc(C(OCCCCN2CCN(c3ccccn3)CC2)c2ccc(F)cc2)cc1 [Compound 39]",
    "log10 of Ki": 1.73
  },
  {
    "Compound": "Fc1ccc(C(OCCCCN2CCNC(c3ccccc3)C2)c2ccc(F)cc2)cc1 (stereo not drawn) [Compound 28]",
    "log10 of Ki": 3.35
  },
  {
    "Compound": "COc1ccccc1N1CCN(CCCCOC(c2ccc(F)cc2)c2ccc(F)cc2)CC1 [Compound 35]",
    "log10 of Ki": 1.54
  },
  {
    "Compound": "O=C(c1ccccc1)N1CCN(CCCCOC(c2ccc(F)cc2)c2ccc(F)cc2)CC1 [Compound 40]",
    "log10 of Ki": 3.19
  }
]

// below: log10 of Ki requested for another compound
Exam item: # get_value(readout= log10 of Ki, system= 5-HT1A receptor (Homo sapiens, UniProt P08908)) for Fc1ccc(C(OCCCCN2CCN(c3ccccc3)CC2)c2ccc(F)cc2)cc1 [Compound 29]
Marked response: 2.45

====

Target: human serotonin transporter (hSERT) (Homo sapiens)
Assay: cell-based
Details: Reuptake Inhibition [3H]5-HT IC50, Table 1-1
Measured endpoint: pIC50
// returns pIC50 (minus log10 of molar concentration), number only

Below, 3 molecules whose answers are already recorded.
[
  {
    "Given smiles": "O=C(Nc1ccc(-c2ccccc2)cc1)N1CCN(CCCCOC(c2ccc(F)cc2)c2ccc(F)cc2)CC1",
    "Study target": "human serotonin transporter (hSERT) (Homo sapiens)",
    "Measured endpoint": "pIC50",
    "Reported measurement": 5.99
  },
  {
    "Given smiles": "Fc1ccc(C(OCCCCN2CCN(C(=S)Nc3cccnc3)CC2)c2ccc(F)cc2)cc1",
    "Study target": "human serotonin transporter (hSERT) (Homo sapiens)",
    "Measured endpoint": "pIC50",
    "Reported measurement": 6.51
  },
  {
    "Given smiles": "O=C(Nc1ccc(F)cc1)N1CCN(CCCCOC(c2ccc(F)cc2)c2ccc(F)cc2)CC1",
    "Study target": "human serotonin transporter (hSERT) (Homo sapiens)",
    "Measured endpoint": "pIC50",
    "Reported measurement": 7.17
  }
]

Exam item: pIC50 for O=C(NCc1ccc(F)cc1)N1CCN(CCCCOC(c2ccc(F)cc2)c2ccc(F)cc2)CC1 ?
Marked response: 8.22

====

Biological target: human dopamine transporter (hDAT) (Homo sapiens, UniProt Q01959)
Sequence (Q01959 whole entry): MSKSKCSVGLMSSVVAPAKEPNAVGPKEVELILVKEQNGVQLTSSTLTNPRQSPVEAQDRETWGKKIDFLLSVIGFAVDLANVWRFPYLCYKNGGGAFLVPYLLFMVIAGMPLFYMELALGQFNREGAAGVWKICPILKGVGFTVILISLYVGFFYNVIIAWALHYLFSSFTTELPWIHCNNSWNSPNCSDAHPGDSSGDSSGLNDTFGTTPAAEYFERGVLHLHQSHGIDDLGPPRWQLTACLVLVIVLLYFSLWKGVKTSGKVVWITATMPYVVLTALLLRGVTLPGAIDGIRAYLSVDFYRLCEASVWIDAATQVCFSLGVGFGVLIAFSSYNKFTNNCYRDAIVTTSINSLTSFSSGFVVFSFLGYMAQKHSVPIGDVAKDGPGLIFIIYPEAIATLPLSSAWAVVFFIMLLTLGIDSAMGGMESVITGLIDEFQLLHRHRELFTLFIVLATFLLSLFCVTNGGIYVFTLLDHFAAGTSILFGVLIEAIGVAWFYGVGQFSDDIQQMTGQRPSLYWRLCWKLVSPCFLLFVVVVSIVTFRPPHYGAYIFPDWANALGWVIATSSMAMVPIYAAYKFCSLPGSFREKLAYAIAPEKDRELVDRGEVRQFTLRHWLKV
Assay: biochemical
Type: binding
Conditions: Table 5; [125I]RTI-55; oxalate salts; read-out: DAT binding affinity Ki
Measured endpoint: Ki

Below, 3 molecules whose answers are already recorded.
[
  {
    "Molecule": "Fc1ccc(C(OCCCCN2CCNC(c3ccccc3)C2)c2ccc(F)cc2)cc1 (stereo not shown)",
    "Study target": "human dopamine transporter (hDAT) (Homo sapiens, UniProt Q01959)",
    "Ki": "3.81 nM"
  },
  {
    "Molecule": "O=[N+]([O-])c1ccc(S(=O)(=O)N2CCN(CCCCOC(c3ccc(F)cc3)c3ccc(F)cc3)CC2)cc1",
    "Study target": "human dopamine transporter (hDAT) (Homo sapiens, UniProt Q01959)",
    "Ki": "760 nM"
  },
  {
    "Molecule": "Fc1ccc(C(OCCCCN2CCNCC2)c2ccc(F)cc2)cc1",
    "Study target": "human dopamine transporter (hDAT) (Homo sapiens, UniProt Q01959)",
    "Ki": "600 nM"
  }
]

// below: Ki requested for another molecule
Exam item: Ki for O=C1CN(CCCCOC(c2ccc(F)cc2)c2ccc(F)cc2)CCN1 ?
Marked response: 4100 nM

====

Target: human serotonin transporter (hSERT) (Homo sapiens)
Assay: cell-based
Details: Table 4-1; read-out: Reuptake Inhibition [3H]5-HT IC50
pIC50 values by entry
// returns pIC50 (minus log10 of molar concentration), number only

Below, 3 compounds whose answers are already recorded.
[
  {
    "Compound": "NCC1(c2ccccc2)CCN(CCCCOC(c2ccc(F)cc2)c2ccc(F)cc2)CC1 [Compound 21]",
    "Study target": "human serotonin transporter (hSERT) (Homo sapiens)",
    "pIC50": 6.47
  },
  {
    "Compound": "O=C(NCC1(c2ccccc2)CCN(CCCCOC(c2ccc(F)cc2)c2ccc(F)cc2)CC1)Nc1ccc(F)cc1 [Compound 22]",
    "Study target": "human serotonin transporter (hSERT) (Homo sapiens)",
    "pIC50": 6.44
  },
  {
    "Compound": "O=C(CCN1C(=O)C=CC1=O)NCC1(c2ccccc2)CCN(CCCCOC(c2ccc(F)cc2)c2ccc(F)cc2)CC1 [Compound 25]",
    "Study target": "human serotonin transporter (hSERT) (Homo sapiens)",
    "pIC50": 5.51
  }
]

Exam item: pIC50 for CC(=O)NCC1(c2ccccc2)CCN(CCCCOC(c2ccc(F)cc2)c2ccc(F)cc2)CC1 [Compound 23] ?
Marked response: 6.44

Exam item: Please do the same for O=C(CCl)NCC1(c2ccccc2)CCN(CCCCOC(c2ccc(F)cc2)c2ccc(F)cc2)CC1 [Compound 26] as well.
Marked response: 6.57
